tested on: DMS-273; experiment: NCI tumour cell line growth inhibition, 48 h
Calls of active or inactive are those of the source. Rule as the data show it: active = GI50 up to about 1.1 µM and inactive = higher.
Outcomes: Y for active, N for inactive

>>> classassignment("Cc1cc2c(cc1C)[n+]([O-])c(C(=O)C/C(=N/NC(=O)CC#N)C(=O)Nc1ccccc1C(F)(F)F)c(C)[n+]2[O-]")
"N"
>>> classassignment("CC(=O)c1c(P(=O)(OC(C)C)OC(C)C)nn(-c2ccc([N+](=O)[O-])cc2)c1C")
"N"
>>> classassignment("c1ccc2c(c1)OCCc1cn[nH]c1-2")
"N"
>>> classassignment("C[N+](C)(C)CC1CCCC(C[N+](C)(C)C)C1=O (centres undefined)")
"N"
>>> classassignment("CC(=O)C1C(c2ccc(N(C)C)cc2)c2cc3c(cc2OC1(C)O)OCO3 (centres undefined)")
"N"
>>> classassignment("N#CC(C#N)C(c1ccccc1)c1ccccc1")
"N"
>>> classassignment("Cc1nc(Nc2ccccc2)sc1C(=O)NNc1ccc([N+](=O)[O-])cc1[N+](=O)[O-]")
"N"
>>> classassignment("COC1/C=C\\C=C(/C)C(=O)NC2=CC(=O)C(NCCCl)=C(CC(C)CC(OC)C(O)C(C)/C=C(/C)C1OC(N)=O)C2=O (centres undefined)")
"Y"
>>> classassignment("COC(=O)C12OCC34C(CC5C(C)=CC(=O)C(O)C5(C)C3C(O)C1O)OC(=O)C(OC(=O)CC(C)C)C24 (centres undefined)")
"Y"
>>> classassignment("Nc1ncnc2c1nnn2C1C=C(CO)C(O)C1O (centres undefined)")
"N"
>>> classassignment("C[C@H](NC(=O)n1c2ccccc2c2ccccc21)C(=O)O")
"N"
>>> classassignment("CSc1nc(CO)c(CO)n1C")
"N"
>>> classassignment("COC(=O)c1ccc(NCc2cc(O)ccc2O)cc1")
"N"
>>> classassignment("CC[P+](C)(C)CC")
"N"
>>> classassignment("Cc1cccc2nc3cccc(C(=O)NCCN(C)C)c3nc12")
"Y"
>>> classassignment("CS/C(=N/C#N)NCCc1c[nH]c2ccccc12")
"N"
>>> classassignment("CN(C)CC/C(=N\\Nc1ccc(Cl)cc1)c1ccccc1")
"Y"
>>> classassignment("N#CCc1ccc(/C(C#N)=C2/OC(=N)C(c3ccc(CC#N)cc3)C2=O)cc1 (centres undefined)")
"N"
>>> classassignment("COC(=O)C(C(=O)C(=O)Nc1ccc(C)cc1)c1nc2ccc([N+](=O)[O-])cc2nc1O (centres undefined)")
"N"
>>> classassignment("C[S+](C)C1(c2ccccc2)C(=O)c2ccccc2C1=O")
"N"
>>> classassignment("COC(=O)C1=C(c2ccc3c(c2)OCO3)O[C@H](c2ccc3c(c2)OCO3)[C@H]1COC(C)=O")
"N"
>>> classassignment("Cc1cc([N+](=O)[O-])c(C)c2c1[nH]c1ccc(/C(CCC3CCCC3)=N\\N)cc12")
"N"
>>> classassignment("CC(C)N(C(=O)C12C3C4C1C1C2C3C41C(=O)O)C(C)C (centres undefined)")
"N"
>>> classassignment("CC(=O)Nc1cc2c(s1)CCC1CC(=O)NN=C21 (centres undefined)")
"N"
>>> classassignment("O=C(/N=c1/[nH]/c(=N/C(=O)c2ccccc2)ss1)c1ccccc1")
"N"
>>> classassignment("CC(C)(C)N1CC2(CCCCC2)C1=O")
"N"
>>> classassignment("Cc1ccc(C(=O)OC(C)C)cc1/N=N/N(C)C")
"N"
>>> classassignment("Cc1ccc(S(=O)(=O)SCc2ccccc2CSS(=O)(=O)c2ccc(C)cc2)cc1")
"N"
>>> classassignment("O=C(NC(=O)c1cn(CCN(CCO)C(=O)NCCCCCCNC(=O)N(CCO)CCn2cc(C(=O)NC(=O)OCc3ccccc3)c(=O)[nH]c2=O)c(=O)[nH]c1=O)OCc1ccccc1")
"N"

* * *

tested on: K562; assay: NCI tumour cell line growth inhibition, 48 h
Activity calls are given as the source filed them. No stated cut-off is given here; in the data, active = GI50 up to about 1.1 µM and inactive = higher.
Outcomes: 1 (active), 0 (inactive)

>>> classassignment("C[C@]12CC[C@@H]3c4ccc(OCCN5CCCC5)cc4CC[C@H]3[C@@H]1CCC2=O")
0
>>> classassignment("O=C1C(=Cc2ccco2)C(=O)C2CCCCC12 (centres undefined)")
0
>>> classassignment("CCOC(=O)CSc1nc(N)c2c(-c3ccc(OC)c(OC)c3)c3c(nc2n1)CCCC3")
0
>>> classassignment("Cc1cccc2c(N)c3cccc(C(=O)NCCN(C)C)c3nc12")
1
>>> classassignment("NC1=CN2c3ccccc3N(CC(=O)N3CCOCC3)C2C=C1 (centres undefined)")
0
>>> classassignment("O=C(Cn1c2c(c3ccccc31)CCCC2)NC1CCCCC1")
0
>>> classassignment("COc1cc(Nc2c(C#N)[n+]([O-])c3ccccc3[n+]2[O-])cc(OC)c1OC")
0
>>> classassignment("Cc1ccc(C)c(C(=O)CC2OC(O)C(Cl)C2Cl)c1 (centres undefined)")
0
>>> classassignment("CC(=O)Nc1ccc(-c2nnc(SCC(=O)Nc3ccccc3Cl)o2)cc1")
0
>>> classassignment("C(/Cc1ccc2c(c1)OCO2)=N\\N=C1NCCN1")
0
>>> classassignment("c1csc(-c2cscc2-c2ccsc2)c1")
0
>>> classassignment("Cc1ccc(-c2cc(C(F)(F)F)nn2-c2ccc(S(N)(=O)=O)cc2)cc1 [CELECOXIB]")
0
>>> classassignment("COc1cccc(-c2nnc3c(-c4ccccc4)nc4ccccc4n23)c1")
0
>>> classassignment("CCCCCCCCCC[C@@H](OC(C)=O)[C@@H]1CC[C@@H]([C@@H]2CC[C@@H]([C@@H](O)CC#C/C=C/CCCCCCC[C@@]3(Sc4ccccc4)C[C@H](C)OC3=O)O2)O1")
0

* * *

tested on: HOP-92; test: NCI tumour cell line growth inhibition, 48 h
The source made the active and inactive calls. Cut-off read from the data, not from the text of the source: active = GI50 up to about 1.1 µM and inactive = higher.
measurementName: GI50

>>> result("CC(SCc1ccccc1)C(=O)O (centres undefined)")
"> 100 µM (inactive)"
>>> result("Cc1ccc(C)c(C(=O)CC2OC(O)C(Cl)C2Cl)c1 (centres undefined)")
"30.6 µM (inactive)"
>>> result("SCc1ccc(CS)s1")
"15.3 µM (inactive)"
>>> result("CC(C)(C)c1cc(CCC(=O)Nc2ccc(Cl)cc2)nc(NC#N)n1")
"91 µM (inactive)"
>>> result("COC(=O)/C(C)=N/N=C(\\S)SC")
"> 100 µM (inactive)"
>>> result("N=C(CSS(=O)(=O)O)NC1CC2CCC1C2 (centres undefined)")
"> 100 µM (inactive)"
>>> result("C=CC1(CBr)CCC(C(C)(C)Br)O1 (centres undefined)")
"14.9 µM (inactive)"
>>> result("COc1ccc(C2SCc3nc4ccccc4n32)cc1 (centres undefined)")
"1.85 µM (inactive)"
>>> result("O=C1C(Br)=C[C@H]2C3C=CC(Br)(C3=O)[C@@H]12 (some centres undefined)")
"16.2 µM (inactive)"
>>> result("COc1cc(C2C(Cl)C(=O)N2NC(=O)c2ccc(N)cc2)cc(Br)c1O (centres undefined)")
"23 µM (inactive)"
>>> result("c1ccc2c(c1)ccn1ccc3c4ccccc4nc-3c21")
"1.41 µM (inactive)"
>>> result("COC(=O)c1c(C)cccc1C1CN=NC12Cc1cc(C)cc(C)c1C2=O (centres undefined)")
"20.4 µM (inactive)"
>>> result("CNC(=O)SCC(N)C(=O)O (centres undefined)")
"51.9 µM (inactive)"
>>> result("CCOC(=O)CN1C(=O)c2ccc(NC(=O)C(=O)O)cc2S1(=O)=O")
"> 100 µM (inactive)"

* * *

system: UACC-62; assay: NCI tumour cell line growth inhibition, 48 h
The source made the active and inactive calls. Rule as the data show it: active = GI50 up to about 1.1 µM and inactive = higher.
measurementName: GI50

>>> result("Cc1nc(Nc2ccccc2)sc1C(=O)NNc1ccc([N+](=O)[O-])cc1[N+](=O)[O-]")
"5.94 µM (inactive)"
>>> result("COc1cc(-c2cc(=O)c3c(O)c(CC=C(C)C)c(O)cc3o2)ccc1O")
"23 µM (inactive)"
>>> result("Cc1ccc(S(=O)(=O)N2CCC(C(=O)O)(c3ccccc3)CC2)cc1")
"> 100 µM (inactive)"
>>> result("C=C[C@]1(C)CC(=O)C(C(C)C=O)[C@]12C(=O)Oc1cccc(C)c1C2=O (stereo partly specified)")
"16.1 µM (inactive)"
>>> result("COc1ccc2c(c1)C=C(C(C)(C)C)NS2(=O)=O")
"> 100 µM (inactive)"
>>> result("CC(C)(C)N1CC2(CCCCC2)C1=O")
"> 100 µM (inactive)"
>>> result("COc1cc(/C=C2/Oc3c(OC)cccc3C2=O)ccc1O")
"> 100 µM (inactive)"
>>> result("COC(=O)c1ccc(CCC2=CC(=O)C(Br)=CC2=O)cc1")
"17.8 µM (inactive)"
>>> result("COC(=O)C1=C(c2ccc3c(c2)OCO3)O[C@H](c2ccc3c(c2)OCO3)[C@H]1COC(C)=O")
"38.6 µM (inactive)"
>>> result("CN(C)Cc1cc(C(=O)/C=C/c2ccc(/C=C/C(=O)c3cc(CN(C)C)c(O)c(CN(C)C)c3)cc2)cc(CN(C)C)c1O")
"25.9 µM (inactive)"
>>> result("CCN(CCCl)c1cc(CN(C)C)cc(NC(=O)c2ccc(C(=O)Nc3ccccc3)cc2)c1")
"1.29 µM (inactive)"
>>> result("CC(=O)N1CCc2c([nH]c3ccc(Br)cc23)C1c1ccccc1 (stereo unspecified)")
"> 7.13 µM (inactive)"
>>> result("Cc1ccc(CC(=O)Nc2ccc(NC(=O)/C=C/NC(=O)/C=C/c3ccc(-c4ccccc4)cc3)cc2C(=O)c2ccccc2)cc1")
"2.16 µM (inactive)"
>>> result("COc1ccc(NC/C=C/C(=C/COC(C)=O)OC(C)=O)cc1")
"3.82 µM (inactive)"
>>> result("c1ccc2c(OCC3CO3)ccc(OCC3CO3)c2c1 (stereo unspecified)")
"3.06 µM (inactive)"
>>> result("CCOC1=NC(C(F)(F)F)(C(F)(F)F)N=C(N2CCCCC2)O1")
"> 100 µM (inactive)"
>>> result("Cc1c(Cl)cccc1NC(=O)c1cccc([N+](=O)[O-])c1O")
"2.18 µM (inactive)"
>>> result("CNC(=O)N1N[C@H](c2ccccc2)[C@@H]1c1ccccc1.OB(O)O")
"13.2 µM (inactive)"
>>> result("CC(=O)N(CN1C(=O)CCC1C(=O)O)c1cccc(O)c1 (stereo unspecified)")
"> 100 µM (inactive)"
>>> result("O=C1C=C(Nc2ccc(Br)cc2)c2ccccc2C1=O")
"4.39 µM (inactive)"
>>> result("COC(=O)Cc1c([C@H]2[C@H](CC(=O)OC)c3ccccc3N2C(C)=O)[nH]c2ccccc12")
"> 100 µM (inactive)"
>>> result("Cc1nc2c(O)c3c(c(O)c2nc1C)C1C=CC3CC1")
"21.2 µM (inactive)"
>>> result("COC(=O)[C@H](Cc1ccc(OC(C)(C)C)cc1)N[C@H](C)C(=O)N[C@@H](Cc1ccccc1)C(=O)OCc1ccccc1")
"> 100 µM (inactive)"
>>> result("CC(=O)c1nc2ccccc2n1CC(=O)c1ccc(Cl)cc1")
"2.02 µM (inactive)"
>>> result("O=C(O)CSc1n[nH]c(=O)[nH]c1=O")
"> 100 µM (inactive)"
>>> result("CC(C)CC(NC(O)[BH2-][N+](C)(C)C)C(=O)NC(Cc1ccccc1)C(=O)N[C@H]1c2ccsc2/C(=N/O)[C@H]1O (stereo partly specified)")
"> 100 µM (inactive)"
>>> result("CCOC(=O)C1=NC(c2ccccc2)(c2ccccc2)OC1=C(Cl)Cl")
"99.8 µM (inactive)"
>>> result("CCOC(=O)c1nc2ccccc2nc1Oc1cc(OC)cc(OC)c1")
"> 100 µM (inactive)"
>>> result("O=C(c1ccccc1)c1ccc2n[se]nc2c1")
"8.51 µM (inactive)"
>>> result("N/N=C1\\C(OC(=O)Nc2cccc(Cl)c2)=Nc2ccccc21")
"7.78 µM (inactive)"
>>> result("NC1=NN(c2ccccc2)C(=O)C1/C(=N\\NC(=O)c1cc2ccccc2cc1O)C(=O)Nc1ccc(Cl)c(Cl)c1 (stereo unspecified)")
"17.7 µM (inactive)"
